- measured-target: porcine pancreatic lipase (PPL) (Sus scrofa, UniProt P00591)
- Sequence (P00591 whole entry): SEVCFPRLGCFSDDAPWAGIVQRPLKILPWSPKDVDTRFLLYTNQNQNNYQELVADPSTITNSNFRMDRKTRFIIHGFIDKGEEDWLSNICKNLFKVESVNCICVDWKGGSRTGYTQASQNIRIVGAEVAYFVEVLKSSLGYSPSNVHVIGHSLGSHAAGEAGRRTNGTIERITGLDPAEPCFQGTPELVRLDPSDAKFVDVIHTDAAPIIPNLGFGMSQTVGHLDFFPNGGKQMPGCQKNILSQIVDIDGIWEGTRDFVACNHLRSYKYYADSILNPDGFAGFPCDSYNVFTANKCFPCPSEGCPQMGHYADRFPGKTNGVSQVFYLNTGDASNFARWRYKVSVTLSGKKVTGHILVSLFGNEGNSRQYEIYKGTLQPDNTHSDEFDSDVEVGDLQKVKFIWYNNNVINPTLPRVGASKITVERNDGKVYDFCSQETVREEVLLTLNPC
- assay-protocol: Pancreatic lipase enzyme inhibition (p-NPD)
- Type: biochemical
- run-parameters: pure compounds, read-out: IC50 (µM) (Mean ± SE)

molecule | IC50
CC1OC(Oc2c(-c3ccc(O)c(O)c3)oc3cc(O)cc(O)c3c2=O)C(O)C(O)C1O (stereo not drawn) [Quercetin-3-rhamnoside, quercetin-3-O-α-rhamnoside] | > 500 µM

----------
- measured-target: UniProt:P53341
- Sequence (P53341 whole entry): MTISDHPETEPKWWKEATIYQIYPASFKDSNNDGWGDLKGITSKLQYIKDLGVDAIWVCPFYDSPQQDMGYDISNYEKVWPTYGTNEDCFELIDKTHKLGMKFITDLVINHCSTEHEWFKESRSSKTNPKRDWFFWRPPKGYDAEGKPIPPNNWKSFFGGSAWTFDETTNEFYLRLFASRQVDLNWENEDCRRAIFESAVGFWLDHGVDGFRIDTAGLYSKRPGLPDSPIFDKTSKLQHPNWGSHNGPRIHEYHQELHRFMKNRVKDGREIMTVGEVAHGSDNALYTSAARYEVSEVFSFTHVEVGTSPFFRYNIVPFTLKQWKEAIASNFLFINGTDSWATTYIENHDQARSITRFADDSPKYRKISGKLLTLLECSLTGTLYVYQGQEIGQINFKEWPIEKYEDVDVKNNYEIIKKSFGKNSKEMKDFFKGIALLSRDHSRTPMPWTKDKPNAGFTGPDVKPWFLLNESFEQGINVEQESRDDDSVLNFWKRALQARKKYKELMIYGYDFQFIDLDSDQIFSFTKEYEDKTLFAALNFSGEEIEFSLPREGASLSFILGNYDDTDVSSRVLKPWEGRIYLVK
endpoint-label: IC50 (µM)

molecule | endpoint-label | reported-measurement
CC1OC(Oc2c(-c3ccc(O)c(O)c3)oc3cc(O)cc(O)c3c2=O)C(O)C(O)C1O (stereo not drawn) [Quercetin-3-rhamnoside, quercetin-3-O-α-rhamnoside] | IC50 | 126
